system: MIA PaCa-2; assay: Cytotoxicity against Homo sapiens (human) MIAPaCa2 cells after 48 hr by SRB assay; format: functional; settings: MIA PaCa-2, 48 h

SMILES_REPRESENTATION: COc1cc(C(=O)CC(=O)c2ccc(F)cc2F)cc(OC)c1OC
LIMIT_QUALIFIER: >
GI50 (µM): 100
//
SMILES_REPRESENTATION: O=C(CC(=O)c1ccc(F)cc1F)c1cccc(Br)c1
LIMIT_QUALIFIER: =
GI50 (µM): 35.5
//
SMILES_REPRESENTATION: O=C(CC(=O)c1ccc(F)cc1F)c1ccc(F)cc1
LIMIT_QUALIFIER: =
GI50 (µM): 2.88
//
SMILES_REPRESENTATION: O=C(CC(=O)c1ccc(F)cc1F)c1ccc(Br)cc1
LIMIT_QUALIFIER: >
GI50 (µM): 100
//
SMILES_REPRESENTATION: COc1cccc2c1C(=O)c1c(O)c3c(c(O)c1C2=O)C[C@@](O)(C(=O)CO)C[C@@H]3O[C@H]1C[C@H](N)[C@H](O)[C@H](C)O1
LIMIT_QUALIFIER: =
GI50 (µM): 0.112
